Cited source: patent US20240067748A1

# study system: T1, human TROP2 protein (Sino Biological, #10428-H08H) (human, UniProt P09758 27-274)
# T1 construct: bought protein; also called human Trop2 protein antigen (His tag); not shown: His tag
# T1 sequence (looked up): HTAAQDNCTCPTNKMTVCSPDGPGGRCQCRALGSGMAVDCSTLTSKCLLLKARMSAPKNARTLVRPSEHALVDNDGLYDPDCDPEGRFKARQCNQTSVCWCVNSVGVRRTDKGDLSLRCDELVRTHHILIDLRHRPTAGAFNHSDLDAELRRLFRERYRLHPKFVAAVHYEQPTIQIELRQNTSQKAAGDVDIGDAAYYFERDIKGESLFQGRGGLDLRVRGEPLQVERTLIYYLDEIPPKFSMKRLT
# assay comment: BLI, Octet RED96, AHC sensor
Entries whose Kd is below 0.8 nM take true (1); entries at or above 0.8 nM take false (0).

Solved cases (5 shown):
PR001158 (antibody, human IgG1, kappa, V domains shown, fully human IgG1/kappa; also called antibody No. (20)) VH: QVQLVESGGGVVQPGRSLRLSCVASGFTFSHYGMHWVRQAPGKGLEWVAVIWYDGIKKYYVESVKGRFTISRDNSKNTLNLQMNRLRAEDTAVYYCARDGGFGESNYYGLDVWGQGTTVTVSS VL: DIQLTQSPSFLSASVGDRVTITCRASQGISSYLGWYQQKPGKAPKLLIYIASTLQSGVPSRFSGSGSGTEFTLTISSLQPEDFATYYCQQLNSYPYTFGQGTKLEIKR | true (1)
PR001171 (antibody, human IgG1, kappa, V domains shown, fully human IgG1/kappa; also called antibody No. (30)) VH: QVQLVESGGGVVQPGRSLRLSCAASGFTFSHYGMHWVRQAPGKGLEWVAVIWYDGIKKNYVESVKGRFTISRDNSKNTLNLQMNRLRAEDTAVYYCARDGGFGESNYYGLDVWGQGTTVTVSS VL: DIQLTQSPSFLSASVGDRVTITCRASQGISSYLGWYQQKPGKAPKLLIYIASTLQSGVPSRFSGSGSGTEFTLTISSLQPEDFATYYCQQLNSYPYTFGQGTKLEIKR | true (1)
PR001168 (antibody, human IgG1, kappa, V domains shown, fully human IgG1/kappa; also called antibody No. (28)) VH: QVQLVESGGGVVQPGRSLRLSCATSGFIFSSYGMHWVRQAPGKGLDWVAVIWYDGSNKYYADSVKGRFTISRDNSKNTLYLQMNSLRVEDTAVYYCARETSSWYVGYLQHWGQGTLVTVSS VL: EIVMTQSPATLSVSPGERVSLSCRASQSVNGNVAWYQQKPGQAPRLLIYAASTRATGIPARFSGSGSGTESTLTISSLQSEDCAVYYCQQYNNWPSTFGPGTKLEVTR | false (0)
PR001164 (antibody, human IgG1, kappa, V domains shown, fully human IgG1/kappa; also called antibody No. (25)) VH: QVQLQQSGPGLVKPSQTLSLTCAISGDSVSSTSAVWNWIRQSPSRGLEWLGRTCYRSKWYNDYAVSVKSRITITPDTSKNQFSLRLNPVTPEDTAVYYCARGDFRFDSWGQGTLVTVSS VL: DIQLTQSPSFLSASVGDRVTITCRASQGISSYLAWYQQKPGKAPKLLIYAASTLQSGVPSRFSGSGSGTEFTLTISSLQPEDFATYYCQQVKIYPLTFGGGTKVEIKR | false (0)
PR001153 (antibody, human IgG1, kappa, V domains shown, fully human IgG1/kappa; also called antibody No. (16)) VH: QVQLQESGPGLVKPSGTLSLTCAVSGGSISSSNWWSWVRQPPGKGLEWIGEIYHDGSTDYNPSLKSRVIISVDKSKNQFSLKVRSVTAADTAVYYCARDNWGFDYWGQGTLVTVSS VL: EIVLTQFPGTLSLSPGERATLSCRSSQSVSSSYLAWYQQKPGQAPRLLISGASSRATGIPDRFSGSGSGTDFTLTISRLEPEDFAVYYCQQYGSSPRTFGQGTKVEIKR | true (1)

*Q* Consider the binder PR001138 (antibody, human IgG1, kappa, V domains shown, fully human IgG1/kappa; also called antibody No. (7)) VH: QVQLQESGPRLVKPSETLSLTCAVSGYSISSGYYWGWIRQSPGMGLEWIAYIYHDGSTYCNPSLKSRVTMSVDTSKNQFSLKLRSVTAADTAVYYCARDGAAAPFDYWGQGTLVTVSS VL: DIQMTQSPSTLSASVGDRVTITCRASQSISNWLAWYQQKPGKAPKVLIYKASSLESGVPSRFSGSGSGTEFTLTINSLQPDDFATYYCQQYDSYSITFGQGTRLEIKR . Is its Kd strictly less than 0.8 nM?
*A* true (1)

*Q* Consider the binder PR001154 (antibody, human IgG1, kappa, V domains shown, fully human IgG1/kappa; also called antibody No. (17)) VH: QVQLVESGGGVVQPGRSLRLSCEASGFTFSHYGMHWVRQAPGKGLEWVAVIWYDGIKKYYIESVKGRFIISRDNSKNTLYLQMNRLRAEDTAVYYCARDGGFGELNYYGLDVWGQGTTVTVSS VL: DIQLTQSPSFLSASVGDRVTITCRASQGISSYLGWYQQKPGKAPKLLIYVASTLQSGVPSRFSGSGSGTEFTLTISSLQPEDFATYYCQQLNSYPYTFGQGTKLEIKR . Is its Kd strictly less than 0.8 nM?
*A* false (0)

*Q* Consider the binder PR001128 (antibody, human IgG1, kappa, V domains shown, fully human IgG1/kappa; also called antibody No. (1)) VH: QVQLQESGPGLVKPSGTLSLTCAVSGGSISSSNWWSWVRQPPGKGLEWIGEIFHSGTTYYNPSLKSRVTILVDKSKNQFSLKLSSVTAADTAVYYCARDNTKSWDHFDHWGQGTLVTVSS VL: EIVLTQSPATLSLSPGERATLSCRASQSVGSYLAWYQQKPGQAPSLLIYDASNRATGIPARFSGSGSGTDFTLTISSLEPEDFAVYYCQQRTNWYTFGQGTKLEIKR . Is its Kd strictly less than 0.8 nM?
*A* true (1)

*Q* Consider the binder PR001166 (antibody, human IgG1, kappa, V domains shown, fully human IgG1/kappa; also called antibody No. (27)) VH: QVQLQESGPGLVKPSETLSLTCAVSGYSISSGYFWAWIRQPPGKGLEWIGSIYHSGRTHYNPSLKSRVIISLDTSKNQFSLKLRSVTAADSAVYYCAREGYASGSYYWGQGTLVTVSS VL: EIVMTQSPATLSVSPGERATLSCRSSQSVNNYLAWFQQKPGQAPRLLIYDSSTRATGIPARFSGSGSGTEFTLTISSLQSEDFAFYFCQQYENWPLTFGGGTKVEIKR . Is its Kd strictly less than 0.8 nM?
*A* true (1)
